subjectOfTest: Ubiquitin carboxyl-terminal hydrolase 28 (Homo sapiens)
assayDetails: Concentration-response biochemical assay confirming initial hits as inhibitors of ubiquitin-specific protease 28 (AID 1645866)
conditions: purified USP28, ubiquitin-rhodamine fluorescence, 30 min
Active and inactive are the calls of the source.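 Rule for the calls: active = in confirmatory dose-response testing, peak deubiquitinase inhibition of 30% or more; inactive = the rest.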
Possible outcomes: YES (active), NO (inactive)

compound=Cc1cc(NC(=O)c2cc(-c3cccnc3)n[nH]2)ccc1Br classification=YES
compound=CC(C)Cc1nc2sc3c(NCc4ccccc4)ncnc3c2c2c1COC(C)(C)C2 classification=YES
compound=Cc1ccc(NC(=O)c2cnc(N3CCOCC3)nc2)cc1F classification=YES
compound="COC(=O)C1C(c2ccc(OC)cc2)C2(C(=O)c3ccccc3C2=O)C2C=Cc3ccccc3N12 (configuration not stated)" classification=NO
compound="Cc1ccc(CN2C(=O)c3cc4ccccc4n3CC2(C)C(=O)NCc2ccccc2)o1 (configuration not stated)" classification=YES
compound=COc1ccccc1NC(=O)Nc1ccc(NC(=O)c2ccccc2O)cc1 classification=YES
compound="Cc1noc(-c2ccc(N3CCCC(C(=O)NCc4ccc(F)cc4)C3)nc2)n1 (configuration not stated)" classification=YES
compound=COc1cc(O)c2c(c1)C1=CC(=O)C(O)=C[C@]1(C)OC2=O classification=YES
compound=COC(=O)c1ccc(Cn2cnc3ccc(Br)cc3c2=O)o1 classification=YES
compound=COc1ccc(S(=O)(=O)Nc2ccc(Nc3ccc(-n4cccn4)nn3)cc2)cc1 classification=YES
compound="CC(C(=O)Nc1ccccc1)n1cnc2nc(N3CCCCC3)ncc2c1=O (configuration not stated)" classification=NO
compound=Cc1cc(-n2c(C)cc(-c3csc(N)n3)c2C)no1 classification=NO
compound="CC1=C(C)C(c2c(-c3ccc(C)cc3)[nH]c3ccccc23)N(C(C)(C)C)C1=O (configuration not stated)" classification=YES
compound="COc1ccc(C2SCC(=O)Nc3c2c(=O)[nH]n3C2CCCCCC2)cc1 (configuration not stated)" classification=YES
compound=O=C(COc1cccc2c1CCN(Cc1cccnc1)C2=O)Nc1ccc2c(c1)OCCO2 classification=YES
compound="COc1ccc(CN2CCCC23CCCN(C(=O)CCc2cccnc2)C3)cc1F (configuration not stated)" classification=YES
compound=CSc1nc2ncn(CC(=O)Nc3cccc(Cl)c3)c(=O)c2s1 classification=NO
compound=Cc1cccc(-n2cnc(C(=O)NCc3ccc(F)cc3)c2)n1 classification=YES
compound=COc1ccc(Nc2nc3c(S(=O)(=O)c4ccc(C)cc4)nnn3c3ccsc23)c(OC)c1 classification=YES
compound=Cn1ccc2c(cc(C(=O)NCCC3=CCCCC3)n2C)c1=O classification=YES
compound=CC(C)NS(=O)(=O)c1ccc(OCC(=O)N2CCC(Cc3ccccc3)CC2)cc1 classification=YES
compound="COc1ccc(C(=O)N2CCCC3(C2)Nc2cccnc2NC3=NC2CCCC2)cn1 (configuration not stated)" classification=NO

---

subjectOfTest: UniProtKB Q96RU2
Sequence (Q96RU2 whole entry, looked up): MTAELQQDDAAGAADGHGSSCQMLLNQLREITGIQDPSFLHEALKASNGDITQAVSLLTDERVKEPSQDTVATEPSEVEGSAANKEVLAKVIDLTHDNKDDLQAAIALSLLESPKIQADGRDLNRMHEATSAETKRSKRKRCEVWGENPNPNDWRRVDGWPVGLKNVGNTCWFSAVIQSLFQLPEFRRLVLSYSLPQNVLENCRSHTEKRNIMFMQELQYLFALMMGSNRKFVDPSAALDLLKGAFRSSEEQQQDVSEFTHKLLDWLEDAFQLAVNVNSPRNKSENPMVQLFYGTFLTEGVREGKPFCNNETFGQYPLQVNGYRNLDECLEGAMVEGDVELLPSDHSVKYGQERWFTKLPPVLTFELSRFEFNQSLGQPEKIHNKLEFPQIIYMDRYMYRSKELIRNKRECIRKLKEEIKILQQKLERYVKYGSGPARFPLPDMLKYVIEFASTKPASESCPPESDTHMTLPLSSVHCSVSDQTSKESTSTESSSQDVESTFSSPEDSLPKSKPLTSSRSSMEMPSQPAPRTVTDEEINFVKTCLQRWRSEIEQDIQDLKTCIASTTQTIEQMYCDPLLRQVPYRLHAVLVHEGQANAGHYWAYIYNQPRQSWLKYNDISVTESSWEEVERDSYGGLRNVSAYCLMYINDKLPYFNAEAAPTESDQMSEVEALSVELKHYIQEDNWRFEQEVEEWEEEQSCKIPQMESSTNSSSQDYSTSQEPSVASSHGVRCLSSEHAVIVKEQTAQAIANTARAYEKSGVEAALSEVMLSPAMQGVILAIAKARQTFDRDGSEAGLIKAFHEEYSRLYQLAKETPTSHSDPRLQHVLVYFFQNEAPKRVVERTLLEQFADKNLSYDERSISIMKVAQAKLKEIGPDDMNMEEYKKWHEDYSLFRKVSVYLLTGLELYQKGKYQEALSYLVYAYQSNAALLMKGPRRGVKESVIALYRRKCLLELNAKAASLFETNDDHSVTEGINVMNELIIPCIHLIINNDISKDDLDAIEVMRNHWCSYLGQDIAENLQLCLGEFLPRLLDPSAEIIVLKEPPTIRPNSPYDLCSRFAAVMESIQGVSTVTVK
assayDetails: Concentration-response biochemical assay confirming initial hits as inhibitors of ubiquitin-specific protease 28 (AID 1645866)
conditions: purified USP28, ubiquitin-rhodamine fluorescence, 30 min
The source made the active and inactive calls.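 How the source made its calls: active means in confirmatory dose-response testing, peak deubiquitinase inhibition of 30% or more; inactive means the rest.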
Possible outcomes: active, inactive

inputsmiles=O=C1N[C@@H](Cc2ccccc2)C(=O)N2[C@H]3Nc4ccccc4[C@@]3([C@]34C[C@H]5C(=O)N[C@@H](Cc6ccccc6)C(=O)N5[C@H]3Nc3ccccc34)C[C@@H]12 classification=active
inputsmiles=COc1cccc2c1OCC(C(=O)NCc1ccc(F)cc1)=C2 classification=active
inputsmiles=COc1ccc(NC(=O)c2ccnc(Nc3ccc(OC)cc3)c2)cc1 classification=active
inputsmiles=O=C(Nc1nc2c(s1)COCC2)c1cc(-c2ccco2)[nH]n1 classification=inactive
inputsmiles=O=C(NCc1ccc2c(c1)OCO2)c1[nH]nc2c1COc1ccccc1-2 classification=active

Just for reference, PubChem BioAssay AID1645866 is where these values come from.
